Test system: DNMT1 (BAH1-BAH2-MTase fragment) (human, UniProt P26358 728-1600)
Sequence (P26358 728-1600): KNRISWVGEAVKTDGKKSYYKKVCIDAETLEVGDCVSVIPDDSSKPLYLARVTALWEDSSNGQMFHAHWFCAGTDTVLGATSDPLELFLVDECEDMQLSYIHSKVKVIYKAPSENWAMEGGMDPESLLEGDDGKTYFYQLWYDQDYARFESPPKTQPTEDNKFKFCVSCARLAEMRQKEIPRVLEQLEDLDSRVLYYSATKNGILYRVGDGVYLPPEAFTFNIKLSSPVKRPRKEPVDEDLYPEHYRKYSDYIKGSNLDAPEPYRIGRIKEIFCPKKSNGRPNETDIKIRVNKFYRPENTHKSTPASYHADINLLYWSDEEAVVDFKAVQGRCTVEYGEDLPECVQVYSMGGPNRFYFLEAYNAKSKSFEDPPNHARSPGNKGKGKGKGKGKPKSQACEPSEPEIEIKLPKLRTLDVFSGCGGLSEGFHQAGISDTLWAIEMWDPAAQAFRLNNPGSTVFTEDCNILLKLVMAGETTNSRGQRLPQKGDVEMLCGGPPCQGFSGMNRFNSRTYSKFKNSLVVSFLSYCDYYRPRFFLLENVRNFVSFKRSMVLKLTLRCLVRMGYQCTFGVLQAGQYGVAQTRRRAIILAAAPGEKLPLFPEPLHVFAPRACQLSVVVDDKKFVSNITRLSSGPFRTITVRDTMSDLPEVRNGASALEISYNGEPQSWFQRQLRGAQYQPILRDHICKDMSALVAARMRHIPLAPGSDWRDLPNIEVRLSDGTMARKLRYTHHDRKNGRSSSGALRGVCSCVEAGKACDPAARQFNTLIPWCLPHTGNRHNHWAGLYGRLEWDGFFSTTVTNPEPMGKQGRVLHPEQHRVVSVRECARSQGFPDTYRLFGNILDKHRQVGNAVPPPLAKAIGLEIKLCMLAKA
Assay remarks: EMSA
Observation type: pKd
Field pKd (float): negative decimal logarithm of the concentration in molar.

Q: Param item = AGAAGTGGGGGTGAGTCCACTTCTG (ssDNA) [Apt. #9] ; retrieve measured pKd.
A: 6.11
